# System: Staphylococcus epidermidis
readout_type: MIC (µM)
The response must be a number in µM with no trailing unit.

Short answer for CC[C@H](C)[C@H](NC(=O)[C@@H](NC(=O)CN)C(C)C)C(=O)N[C@@H](CC(=O)O)C(=O)N[C@@H](C)C(=O)N[C@@H](C)C(=O)N[C@@H](CCCCN)C(=O)N[C@@H](CCCCN)C(=O)N[C@H](C(=O)N[C@H](C(=O)N[C@@H](CC(N)=O)C(=O)N[C@H](C(=O)N[C@@H](CC(C)C)C(=O)N[C@@H](CCCCN)C(=O)N[C@@H](CC(N)=O)C(=O)N[C@@H](CC(C)C)C(=O)N1CCC[C@H]1C(N)=O)C(C)C)C(C)C)C(C)C : MIC was 7.03

* * *

What follows is a collection of MIC values obtained with Staphylococcus epidermidis.
Quick note: give the figure in µM, leave out the unit.

Solved entries:
>>> observed("CC[C@H](C)[C@H](NC(=O)CN)C(=O)N[C@@H](CC(C)C)C(=O)N[C@@H](CO)C(=O)N[C@@H](CO)C(=O)N[C@@H](Cc1c[nH]c2ccccc12)C(=O)N[C@@H](CC(C)C)C(=O)N[C@@H](CCCCN)C(=O)N[C@@H](CCCCN)C(=O)N[C@@H](CC(C)C)C(=O)N[C@@H](CCCCN)C(=O)N[C@@H](CCCCN)C(=O)N[C@H](C(=O)N[C@H](C(=O)N[C@@H](C)C(=O)N[C@@H](CCCCN)C(N)=O)[C@@H](C)CC)[C@@H](C)CC")
2
>>> observed("CC[C@H](C)[C@H](NC(=O)[C@H](Cc1ccc(O)cc1)NC(=O)[C@H](Cc1ccc(O)cc1)NC(=O)[C@H](CO)NC(=O)CNC(=O)CNC(=O)[C@H](CC(N)=O)NC(=O)[C@H](CCCN=C(N)N)NC(=O)[C@H](CC(C)C)NC(=O)[C@@H](N)Cc1ccccc1)C(=O)N[C@H](C(=O)N1CCC[C@H]1C(=O)N[C@@H](C)C(=O)N[C@@H](Cc1ccccc1)C(=O)N[C@@H](CCCN=C(N)N)C(=O)NCC(=O)N[C@@H](CCCCN)C(=O)NCC(=O)O)C(C)C")
10

Let us examine a further case.
Lab note: CC[C@H](C)[C@H](NC(=O)[C@H](CC(=O)O)NC(=O)[C@H](Cc1ccccc1)NC(=O)[C@H](CC(C)C)NC(=O)CN)C(=O)N[C@H](C(=O)N[C@@H](CCCCN)C(=O)N[C@@H](CCCCN)C(=O)N[C@H](C(=O)N[C@@H](C)C(=O)N[C@@H](CO)C(=O)N[C@H](C(=O)N[C@H](C(=O)NCC(=O)NCC(=O)N[C@@H](CC(C)C)C(N)=O)C(C)C)C(C)C)C(C)C)[C@@H](C)CC gave MIC of 15.5

* * *

Quick record: MIC, Salmonella enterica subsp. enterica serovar Typhimurium ATCC 14028.
Quick reminder: number only, in µM, skip the unit.

Some compounds with known MIC results, for comparison:
>>> observed("CC[C@H](C)[C@H](NC(=O)CN)C(=O)N[C@@H](Cc1cnc[nH]1)C(=O)N[C@@H](CC(=O)O)C(=O)N[C@H](C(=O)N[C@@H](CC(C)C)C(=O)N[C@@H](CCCCN)C(=O)N[C@@H](Cc1ccc(O)cc1)C(=O)NCC(=O)N[C@@H](CCCCN)C(=O)N1CCC[C@H]1C(=O)N[C@@H](CO)C(N)=O)[C@@H](C)CC")
20
>>> observed("CC[C@H](C)[C@H](NC(=O)[C@H](CCCN=C(N)N)NC(=O)[C@H](C)NC(=O)[C@H](C)N)C(=O)N[C@H](C(=O)N[C@@H](CC(C)C)C(=O)N[C@@H](CCCN=C(N)N)C(=O)NCC(=O)N[C@@H](CCCN=C(N)N)C(=O)N[C@@H](Cc1ccccc1)C(=O)N[C@@H](CCCN=C(N)N)C(N)=O)[C@@H](C)CC")
4
>>> observed("CC(C)[C@H](NC(=O)[C@H](CCCCN)NC(=O)[C@H](Cc1c[nH]c2ccccc12)NC(=O)[C@H](CCCN=C(N)N)NC(=O)CNC(=O)[C@H](CCC(N)=O)NC(=O)[C@@H](NC(=O)[C@@H](N)CCCN=C(N)N)C(C)C)C(=O)N[C@@H](CCCN=C(N)N)C(=O)N[C@@H](C)C(=O)N[C@@H](CO)C(=O)N[C@@H](Cc1ccccc1)C(=O)N[C@@H](Cc1ccccc1)C(=O)N[C@@H](CCCCN)C(=O)O")
9.06

Assay Salmonella enterica subsp. enterica serovar Typhimurium ATCC 14028, sample CC[C@H](C)[C@H](NC(=O)[C@H](CCCN=C(N)N)NC(=O)[C@@H](N)CCCN=C(N)N)C(=O)N[C@@H](CCCN=C(N)N)C(=O)N1CCC[C@H]1C(=O)N[C@@H](CCCN=C(N)N)C(=O)N1CCC[C@H]1C(=O)N1CCC[C@H]1C(=O)N[C@@H](CCCN=C(N)N)C(=O)N[C@@H](CC(C)C)C(=O)N1CCC[C@H]1C(=O)N[C@@H](CCCN=C(N)N)C(=O)N1CCC[C@H]1C(=O)N[C@@H](CCCN=C(N)N)C(=O)N1CCC[C@H]1C(=O)O , MIC read: 128
